These data points were gathered from paper PMC9332313.

biological target: T1, SH2 domain of Crkl protein (residues 1-111), H80A variant (UniProt P46109 1-111, H80A); assay: stopped-flow fluorescence kinetics (FRET); dansyl-Pax112-123 constant at 2 μM mixed with Crkl-SH2 2 to 10 μM (pseudo-first-order, kon); koff by displacement of the preincubated 2 µM complex with excess non-dansylated Pax112-123 (30 μM); 283 K; 50 mM sodium-HEPES pH 7.5, 0.5 M NaCl; settings: both partners purified
T1 construct: Crkl adaptor protein, SH2 domain, residues 1-111, His80 replaced by alanine; Site-directed mutant of m1 (QuikChange); source: E. coli BL21 (DE3), purified (HisTrap nickel column, desalting); not shown: His tag, N-terminal, kept
T1 sequence (P46109 1-111 H80A): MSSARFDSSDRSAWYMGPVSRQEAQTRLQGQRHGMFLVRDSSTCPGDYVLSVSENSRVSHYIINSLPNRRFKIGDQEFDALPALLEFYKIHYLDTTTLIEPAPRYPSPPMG
Square brackets hold non-standard residues; d marks the D form. Ends that are not written are not given here. * marks the point of attachment. pY = N[C@@H](Cc1ccc(OP(=O)(O)O)cc1)C(=O)O; Dansyl = CN(C)c1cccc2c(S(=O)(=O)*)cccc12
result-type: pKd
// pKd here means minus log10 of the molar concentration (mol/L)

Request: I would be grateful if you could share the reported pKd for Dansyl-GEEEHV[pY]SFPNK (The dansyl group is the FRET acceptor of Trp14 of the SH2 domain; source: synthetic peptide, bought: GenScript) [dansylated Pax_(112–123) peptide (Dans-GEEEHV-pY-SFPNK)] .
Result: 5.70
